Data provenance is patent US11613545B2.

# target or test system: Wee1 (Homo sapiens)
# Construct: purchased Eurofins
# Sequence (P30291 whole entry): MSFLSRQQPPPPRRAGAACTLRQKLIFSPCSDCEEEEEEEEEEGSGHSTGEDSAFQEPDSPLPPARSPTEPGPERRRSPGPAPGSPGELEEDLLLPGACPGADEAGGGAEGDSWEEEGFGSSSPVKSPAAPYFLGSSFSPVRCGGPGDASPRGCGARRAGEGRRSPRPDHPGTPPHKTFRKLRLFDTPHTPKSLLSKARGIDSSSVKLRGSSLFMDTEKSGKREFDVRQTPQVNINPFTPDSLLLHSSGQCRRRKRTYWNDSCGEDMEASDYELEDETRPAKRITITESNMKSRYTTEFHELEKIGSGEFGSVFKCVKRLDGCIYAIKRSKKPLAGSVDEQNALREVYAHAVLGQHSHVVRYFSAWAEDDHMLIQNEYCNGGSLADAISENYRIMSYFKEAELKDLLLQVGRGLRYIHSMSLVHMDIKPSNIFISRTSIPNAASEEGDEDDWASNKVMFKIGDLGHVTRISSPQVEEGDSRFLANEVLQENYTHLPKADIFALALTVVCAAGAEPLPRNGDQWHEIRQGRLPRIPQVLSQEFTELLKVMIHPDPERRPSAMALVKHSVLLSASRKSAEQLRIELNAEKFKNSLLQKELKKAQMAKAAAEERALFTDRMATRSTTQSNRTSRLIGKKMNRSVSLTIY
# test details: In vitro enzymatic inhibitory activity, Wee1 kinase (Eurofins, [γ-33P]-ATP filter assay)
# Assay type: biochemical
# experimental context: 10 μM [γ-33P]-ATP, 40 min at room temperature
Some compounds, each annotated with its measured IC50.
metric name: IC50 (nM)

>>> df
                                   compound  metric_name  experimental_value
0  CN(C)CCOc1cccc(Nc2ncc3c(=O)n4n(c3n2)-c2cccc(n2)[C@@](C)(O)CC/C=C\C4)c1         IC50                 221
1  C[C@]1(O)CC/C=C\Cn2c(=O)c3cnc(Nc4cccc(F)c4)nc3n2-c2cccc1n2         IC50                 444
2  CN1CCN(c2ccc(Nc3ncc4c(=O)n5n(c4n3)-c3cccc(n3)[C@](C)(O)CC/C=C\C5)cc2CO)CC1         IC50                  16
3  C[C@]1(O)CC/C=C\Cn2c(=O)c3cnc(Nc4ccccc4)nc3n2-c2cccc1n2         IC50                 265
4  C[C@]1(O)CC/C=C\Cn2c(=O)c3cnc(Nc4ccc(N5CCOCC5)cc4)nc3n2-c2cccc1n2         IC50                 151
5  CN(C)C1CCN(c2ccc(Nc3ncc4c(=O)n5n(c4n3)-c3cccc(n3)[C@](C)(O)CC/C=C\C5)cc2)CC1         IC50                  48
6  CN1CC2CN(c3ccc(Nc4ncc5c(=O)n6n(c5n4)-c4cccc(n4)[C@@](C)(O)CC/C=C\C6)cc3)CC2C1 (stereo partly shown)         IC50                  78

* * *

# target or test system: Wee1 (Homo sapiens)
# Construct: purchased Eurofins
# test details: In vitro enzymatic inhibitory activity, Wee1 kinase (Eurofins, [γ-33P]-ATP filter assay)
# Assay type: biochemical
# experimental context: 10 μM [γ-33P]-ATP, 40 min at room temperature
# Description: The experimental tests were conducted at Eurofins, and the results were provided by the company. After adding the mixed solution of Mg^2+ and ATP, the reaction started and the reaction solution was incubated at room temperature for 40 min. 3% phosphate buffer was added to stop the reaction. […] After drying, the value was read by scintillation counting method.
Labelling field: enter rule met if recorded IC50 is less than 70 nM. Enter rule not met if it equals or exceeds that cut-off.

                                    molecule  category_label
 0  COCc1cc(Nc2ncc3c(=O)n4n(c3n2)-c2cccc(n2)[C@](C)(O)CC/C=C\C4)ccc1N1CCN(C)CC1        rule met
 1  C[C@@]1(O)CC/C=C\Cn2c(=O)c3cnc(Nc4ccc(N5CCOCC5)cc4)nc3n2-c2cccc1n2        rule met
 2  CN1CCN(c2cccc(Nc3ncc4c(=O)n5n(c4n3)-c3cccc(n3)[C@@](C)(O)CC/C=C\C5)c2)CC1    rule not met
 3  CC1(O)CC/C=C\Cn2c(=O)c3cnc(Nc4ccc(N5CCNCC5)cc4)nc3n2-c2cccc1n2 (stereo not drawn)        rule met
 4  CC1(O)CC/C=C\Cn2c(=O)c3cnc(Nc4ccc(N5CCCNCC5)cc4)nc3n2-c2cccc1n2 (stereo not drawn)    rule not met
 5  CN1CCCN(c2ccc(Nc3ncc4c(=O)n5n(c4n3)-c3cccc(n3)[C@](C)(O)CC/C=C\C5)cc2)CC1        rule met
 6  CN(C)CCOc1cccc(Nc2ncc3c(=O)n4n(c3n2)-c2cccc(n2)[C@](C)(O)CC/C=C\C4)c1        rule met
 7  C[C@@]1(O)CC/C=C\Cn2c(=O)c3cnc(Nc4ccc(F)cc4)nc3n2-c2cccc1n2        rule met
 8  CN(C)CCOc1ccc(Nc2ncc3c(=O)n4n(c3n2)-c2cccc(n2)[C@](C)(O)CC/C=C\C4)cc1        rule met
 9  CN1CCc2ccc(Nc3ncc4c(=O)n5n(c4n3)-c3cccc(n3)[C@](C)(O)CC/C=C\C5)cc2C1        rule met
10  C[C@@]1(O)CC/C=C\Cn2c(=O)c3cnc(Nc4cccc(F)c4)nc3n2-c2cccc1n2    rule not met
11  CN1CC2CN(c3ccc(Nc4ncc5c(=O)n6n(c5n4)-c4cccc(n4)[C@](C)(O)CC/C=C\C6)cc3)CC2C1 (stereo partly drawn)        rule met
12  COc1cccc(Nc2ncc3c(=O)n4n(c3n2)-c2cccc(n2)[C@@](C)(O)CC/C=C\C4)c1    rule not met
13  CN1CCC(c2ccc(Nc3ncc4c(=O)n5n(c4n3)-c3cccc(n3)[C@@](C)(O)CC/C=C\C5)cc2)CC1    rule not met
14  CN1CCC(c2ccc(Nc3ncc4c(=O)n5n(c4n3)-c3cccc(n3)[C@](C)(O)CC/C=C\C5)cc2)CC1    rule not met
